// data source = ChEMBL document CHEMBL1158584

# Measured on: Prostaglandin G/H synthase 1 (Ovis aries)
# Sequence (P05979 whole entry): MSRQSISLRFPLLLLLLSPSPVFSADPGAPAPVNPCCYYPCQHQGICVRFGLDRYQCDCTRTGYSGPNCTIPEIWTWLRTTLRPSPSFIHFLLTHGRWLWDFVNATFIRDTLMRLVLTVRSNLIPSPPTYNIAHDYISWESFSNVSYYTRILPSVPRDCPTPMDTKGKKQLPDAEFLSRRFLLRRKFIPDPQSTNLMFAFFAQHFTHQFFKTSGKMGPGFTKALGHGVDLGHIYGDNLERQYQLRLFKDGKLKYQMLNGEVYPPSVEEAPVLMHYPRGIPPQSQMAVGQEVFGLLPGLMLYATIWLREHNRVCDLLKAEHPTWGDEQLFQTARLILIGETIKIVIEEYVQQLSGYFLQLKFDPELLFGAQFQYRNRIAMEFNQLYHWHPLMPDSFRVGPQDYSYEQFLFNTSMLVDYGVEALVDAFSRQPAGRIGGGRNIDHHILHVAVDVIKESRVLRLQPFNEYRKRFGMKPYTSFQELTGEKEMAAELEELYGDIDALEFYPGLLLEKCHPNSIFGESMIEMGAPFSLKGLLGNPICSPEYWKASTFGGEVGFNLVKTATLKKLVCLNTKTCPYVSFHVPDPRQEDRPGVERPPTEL
pIC50: −log10 of the molar value.
Parameter threshold = 5. Response is Condition met when pIC50 meets or exceeds it, else Condition not met.

Illustrative cases are given below, each with its answer.
N#CSC[C@@H]1C[C@@](O)(c2ccccc2)C[C@H](c2ccc(Br)cc2)O1 (relative stereo)
Condition met
CCSC[C@@H]1C[C@@](O)(c2ccccc2)C[C@H](c2ccc(Br)cc2)O1 (relative stereo)
Condition met
N#CSC[C@@H]1C[C@](O)(c2ccccc2)[C@@H](c2ccccc2)[C@H](c2ccccc2)O1 (relative stereo)
Condition not met

Query: Tell me whether pIC50 is at least 5 here: C[C@H]1C[C@](O)(c2ccccc2)C[C@@H](CSC#N)O1 (relative stereo)
Response: Condition met
